// reported inhibition per item
assay: HepG2 cytotoxicity, primary screen, cytotoxicity control for P. falciparum antimalarial project, cell-based, ATP luminescence (AID 2303); conditions: HepG2 viability, 24-48 h, at 10 µM, stronger effect = higher value;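 also: 0% = DMSO wells and 100% = digitonin-killed cells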
experimentalReadout: inhibition (%)

Cc1cnc(-c2ccc(NC(=O)c3coc4ccc(N5C[C@@H](C)N(C)[C@@H](C)C5)cc34)cc2)o1
18
Cc1c(S(=O)(=O)Nc2ccc3nccc(N4CCN[C@H](C)C4)c3c2)sc2ccc(Cl)cc12
16
CC(COc1ccc2c(c1)OC(C)(C)CC2c1ccccc1)NCC(O)c1cccc(Cl)c1 (centres undefined)
1
Fc1ccc2nc(-c3cccc(-c4ccc(CN5CCN(c6ccncc6)CC5)cc4)c3)[nH]c2c1
39
COc1ccc(NC(=O)[C@H](CC(C)C)Nc2ccnc(NCCc3ccc(F)cc3)n2)cc1
-6
CCNc1cc(C(=O)N[C@@H](Cc2ccccc2)[C@H](O)CNCCc2cccc(C(F)(F)F)c2)cc(N2CCCC2=O)c1
7
CNCCNCc1cccc(-c2cccc(-c3nc4ccc(C(F)(F)F)cc4[nH]3)c2)c1
22
Cc1cc(CN2CCCC(OC(c3ccc(F)cc3)c3ccc(F)cc3)C2)ccc1O (centres undefined)
28
Cc1nc(-c2cccc(C(=O)NC3CCC(CCN4CCc5ccc(-c6cccnc6)cc5CC4)CC3)c2)no1 (centres undefined)
17

* * *

// reported inhibition per item
assay: HepG2 cytotoxicity, primary screen, cytotoxicity control for P. falciparum antimalarial project, cell-based, ATP luminescence (AID 2303); conditions: HepG2 viability, 24-48 h, at 10 µM, stronger effect = higher value;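 also: 0% = DMSO wells and 100% = digitonin-killed cells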
Activity calls are given as the source filed them.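 The calls were made as follows: active = inhibition above 50%; inactive = the rest.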
experimentalReadout: inhibition

CCc1cc2c(cc1OCCN(C)C)N(C(=O)Nc1ccc(-c3ccncc3)c(Cl)c1)CC2
18% (inactive)
CN(C)CCCN1CCN(C(=O)c2cc3cc(-c4ccccc4)ccc3n2S(=O)(=O)c2ccccc2)CC1
32% (inactive)
CCC1(CC)N=C(N)N=C(N)C1c1ccc(Cl)c(Cl)c1 (stereo not drawn)
-16% (inactive)

* * *

experiment: antimalarial activity against Dd2 strain (AID 2302);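 also: 0% = DMSO untreated growth and 100% = chloroquine plus artemisinin killed control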; conditions: P. falciparum Dd2 in RBCs, LDH growth readout, 72 h; at 2 µM
Active and inactive are the calls of the source.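 The calls were made as follows: active = growth inhibition above 50% at the single 2 µM test dose, taken to imply half-maximal potency below 2 µM; inactive = the rest.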
Classes used: active, inactive

COc1ccccc1-c1nc2nc(N)nc(N)c2nc1-c1ccccc1OC
inactive
O=C(Nc1cccc(-c2nn3ccccc3c2-c2ccnc(Nc3cccc(F)c3)n2)c1)c1c(F)ccc(F)c1Cl
inactive
O=S(=O)(c1ccc2ccccc2c1)N1CCCN(Cc2ccc(OCCCN3CCCCC3)cc2)CC1
inactive
Cc1sc2ncnc(Sc3nnc(N)s3)c2c1C
active
O=S(=O)(NCCN1CCCC1)c1cccc(-c2ccc(CNCc3ccccc3)cc2)c1
inactive
COc1ccc2nc(C)cc(Nc3ccc(Oc4ccc(Cl)cc4)c(Cl)c3)c2c1
active
S=C(NCCCCCN1CCC(c2c[nH]c3ccccc23)CC1)Nc1cccc(I)c1
inactive
COc1cccc(-c2cc(C(F)(F)F)n3ncc(C(=O)Nc4cc(Cl)ccc4O)c3n2)c1
active
OCCCCCCN=Cc1[nH]c(=S)sc1O
inactive
O=C(Nc1ccccc1)NC1CCN(CCC2(c3ccc(Cl)c(Cl)c3)COCN(C(=O)c3ccccc3)C2)C1 (configuration not stated)
active
Cc1cccc(CNc2nc(C)cc(N[C@@H](CC(C)C)C(=O)NCCOc3ccccc3)n2)c1
inactive
CC(C)(C)c1cc(Cn2ccnc2)cc(C(C)(C)C)c1O
inactive
